melting point: recorded values

Answered cases to consult:
| molecule | melting point |
| --- | --- |
| NCC(C(=O)O)c1c[nH]c2ccc(F)cc12 (configuration not stated) | 244 to 245 °C |
| O=C1NC(=O)C(Sc2ccc3cc(O)ccc3c2)S1 (configuration not stated) | 182 to 183 °C |
| CC1(c2ccc(O)cc2)CC1(Cl)Cl (configuration not stated) | 125 to 126 °C |
| Cc1c(C(N)=O)oc2c(C(=O)O)cccc2c1=O | > 250 °C |
| Cc1c(-c2cc(Nc3cc4n(n3)CCN(C)C4)c(=O)n(COP(=O)(OCCC#N)OCCC#N)n2)cccc1N1Cc2cc(C(C)(C)C)sc2C1=O | 208 to 210 °C |
| CC(C)(C)C(=O)N[Si](C)(C)C | 101 to 106 °C |
| CCOC(=O)c1cc2cccc(OCC(O)CCl)c2o1 (configuration not stated) | 95 to 97 °C |
| COC(=O)c1ccccc1S(=O)(=O)NC(=O)c1cc(C)on1 | 101 °C |

# input Requested read-out: melting point. Entry: c1ccc(CN2CCC3(CC2)SC(c2ccccc2)c2ccccc23)cc1 (configuration not stated)
# output 144 to 145 °C

# input Requested read-out: melting point. Entry: `CNNC(=O)Nc1ncnc2cc(OC)c(OC)cc12`
# output 246 to 247 °C

# input Requested read-out: melting point. Entry: CCCN1CC(C)CC2c3cccc4[nH]c(SC)c(c34)CC21 (configuration not stated)
# output 216 to 219 °C

# input Requested read-out: melting point. Entry: `NC1=c2c3c(ccc2=CCS1)CCCN3`
# output 214 to 216 °C

###

endpoint name: melting point

# input Requested read-out: melting point. Entry: `N#CCCNC(=O)c1cccc(-c2cccc(Oc3ccccc3Cl)n2)c1`
# output 82 to 83 °C

# input Requested read-out: melting point. Entry: `Cc1[nH]c2ccc(S(=O)(=O)c3cc(F)cc(F)c3)cc2c1CCNC(=O)OC(C)(C)C`
# output 201 to 204 °C

# input Requested read-out: melting point. Entry: `CC(C)(C)OC(=O)N1CCN(C(=O)c2cccs2)CC1`
# output 76 °C

# input Requested read-out: melting point. Entry: `CC(C)NC(=O)c1c(NC(=O)c2cc(C(F)(F)F)nn2-c2ncccc2Cl)ccc2cccnc12`
# output 225 to 226 °C

# input Requested read-out: melting point. Entry: c1ccc2c(c1)NC(CN1CCOCC1)CO2 (stereo not given)
# output 117 to 121 °C

###

melting point: recorded values

# input Requested read-out: melting point. Entry: `NC(=O)c1sc2nccc(N3CCCN(c4ccc([N+](=O)[O-])cc4)CC3)c2c1N`
# output 244 to 248 °C

# input Requested read-out: melting point. Entry: `CCOC(=O)c1cc2c(C=O)cc3c4ccccc4ccc3c2s1`
# output 196 to 197 °C

# input Requested read-out: melting point. Entry: O=C(NC1N=C(c2ccccc2F)c2ccccc2-n2cnnc21)OCc1ccccc1 (centres undefined)
# output 123 °C

# input Requested read-out: melting point. Entry: `N#Cc1cc2c(-c3ccncc3)nccc2[nH]c1=O`
# output > 300 °C

# input Requested read-out: melting point. Entry: `FC(F)Oc1cccc(C=C2c3ccccc3CCc3ccccc32)c1`
# output 91.3 °C
